FYI, the data here is from the supplement of paper PMC10567573.

B1: ZBTB22 (parent)
chain: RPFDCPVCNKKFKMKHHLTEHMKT

# Variants of: B1
# Procedure Summary: protein stability index of a GFP-peptide fusion (GPS, HEK-293T) (PSI 1-6); higher = more stable;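 further: lentivirally expressed fusions sorted by FACS into six bins by GFP to DsRed ratio, PSI derived from sequencing read proportions per bin multiplied by bin number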
# Experimental Context: c terminus: a fixed tail appended
Reported Property: protein stability index
Just the number, please, no unit attached.

Please review the following examples before continuing.
Monomer Sequence | Measured Value
RPFDCPICNKKFKMKHHLTEHMKT [V7I] | 3.09
RPFDCPVCNKKFKMKHHLTDHMKT [E20D] | 2.99
RPFDCPVSNKKFKMKHHLTEHMKT [C8S] | 3.03
RPFDCPVCNKKFSMKHHLTEHMKT [K13S] | 2.91

GET /values?readout=protein stability index&item= RPFDCPVCNKKFKMKHHLTEHMHT [K23H] 3.06
